Method description: Stability of analytes in rat plasma (auto-sampler, freeze-thaw, room temperature, long-term)
Condition description: 500 ng/mL, autosampler 24 h

Compound: O=c1cc(-c2ccccc2)oc2cc(O)c(O)c(O)c12 [baicalein]
Autosampler for 24 h Accuracy (%): 93.2
--
Compound: O=C(O)C=Cc1ccc(O)cc1 [p-Coumaric acid]
Autosampler for 24 h Accuracy (%): 115.0
--
Compound: CC(C)(O[C@@H]1O[C@H](CO)[C@@H](O)[C@H](O)[C@H]1O)[C@@H]1CC[C@](O)(CO)[C@H]2CC(=O)[C@@](C)(O)[C@@H]2C1 [atractyloside A]
Autosampler for 24 h Accuracy (%): 103.0
--
Compound: O=C1C[C@@H](c2ccc(O)cc2)Oc2cc(O)cc(O)c21 [naringenin]
Autosampler for 24 h Accuracy (%): 107.0
